compounds and their reported inhibition at 10 µM
target: IKK-beta (Homo sapiens, UniProt O14920); assay: IKK-beta kinase assay; assay type: biochemical; conditions: 10 μM compound; read-out: IKK-beta percent of inhibition
Sequence (O14920 whole entry, species assumed): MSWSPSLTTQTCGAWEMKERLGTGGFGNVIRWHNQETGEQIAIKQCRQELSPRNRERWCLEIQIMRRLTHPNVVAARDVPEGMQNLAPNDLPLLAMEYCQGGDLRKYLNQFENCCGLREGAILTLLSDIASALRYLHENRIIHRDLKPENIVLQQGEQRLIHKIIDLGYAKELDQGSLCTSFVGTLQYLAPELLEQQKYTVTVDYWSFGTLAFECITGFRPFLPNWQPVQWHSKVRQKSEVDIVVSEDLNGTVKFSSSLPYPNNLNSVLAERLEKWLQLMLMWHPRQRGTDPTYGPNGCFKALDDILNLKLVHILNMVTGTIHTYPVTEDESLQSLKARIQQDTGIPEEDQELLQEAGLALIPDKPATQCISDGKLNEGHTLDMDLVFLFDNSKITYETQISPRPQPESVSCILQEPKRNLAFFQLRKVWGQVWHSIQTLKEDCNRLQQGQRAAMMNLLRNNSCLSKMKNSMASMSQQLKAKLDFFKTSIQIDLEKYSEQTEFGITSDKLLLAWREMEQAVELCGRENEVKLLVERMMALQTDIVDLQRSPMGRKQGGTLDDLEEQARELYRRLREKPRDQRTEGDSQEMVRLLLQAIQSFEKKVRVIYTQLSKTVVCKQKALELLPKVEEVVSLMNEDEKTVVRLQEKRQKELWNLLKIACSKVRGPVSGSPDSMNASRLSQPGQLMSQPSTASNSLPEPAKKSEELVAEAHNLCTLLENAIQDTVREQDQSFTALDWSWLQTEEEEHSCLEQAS
measurement-type: inhibition at 10 µM (%)

# compound, measurement-type, readout-value
data = [
    ("Brc1cccc(Nc2ncnc3sc4c(c23)CCCC4)c1 [Compound 3]", "inhibition at 10 µM", 11),
    ("Fc1cccc(Nc2ncnc3sc4c(c23)CCCC4)c1 [Compound 2]", "inhibition at 10 µM", 19),
    ("Fc1cccc(Nc2nc(C3CC3)nc3sc4ccccc4c23)c1 [Compound 16]", "inhibition at 10 µM", -4),
    ("N#Cc1cccc(Nc2nc(C3CC3)nc3sc4c(c23)CCCC4)c1 [Compound 14]", "inhibition at 10 µM", -6),
    ("Clc1cccc(Nc2ncnc3sc4ccccc4c23)c1 [Compound 22]", "inhibition at 10 µM", 11),
    ("Clc1cccc(Nc2nc(C3CC3)nc3sc4c(c23)CCCC4)c1 [Compound 9]", "inhibition at 10 µM", -2),
    ("COc1cccc(Nc2nc(C3CC3)nc3sc4c(c23)CCCC4)c1 [Compound 15]", "inhibition at 10 µM", 12),
    ("Clc1cccc(Nc2nc(C3CC3)nc3sc4ccccc4c23)c1 [Compound 17]", "inhibition at 10 µM", 8),
    ("Oc1cccc(Nc2nc(C3CC3)nc3sc4c(c23)CCCC4)c1 [Compound 10]", "inhibition at 10 µM", 10),
    ("Clc1ccc(Nc2ncnc3sc4c(c23)CCCC4)cc1 [Compound 7]", "inhibition at 10 µM", 9),
    ("Nc1cccc(Nc2ncnc3sc4c(c23)CCCC4)c1 [Compound 4]", "inhibition at 10 µM", 12),
    ("Nc1cccc(Nc2nc(C3CC3)nc3sc4c(c23)CCCC4)c1 [Compound 12]", "inhibition at 10 µM", 9),
    ("O=[N+]([O-])c1cccc(Nc2nc(C3CC3)nc3sc4c(c23)CCCC4)c1 [Compound 13]", "inhibition at 10 µM", -9),
    ("N#Cc1cccc(Nc2ncnc3sc4c(c23)CCCC4)c1 [Compound 5]", "inhibition at 10 µM", 10),
    ("Brc1cccc(Nc2ncnc3sc4ccccc4c23)c1 [Compound 23]", "inhibition at 10 µM", -5),
    ("Fc1ccccc1Nc1ncnc2sc3c(c12)CCCC3 [Compound 1]", "inhibition at 10 µM", 23),
    ("Nc1ccc(Nc2ncnc3sc4c(c23)CCCC4)cc1 [Compound 8]", "inhibition at 10 µM", 16),
    ("Brc1cccc(Nc2nc(C3CC3)nc3sc4ccccc4c23)c1 [Compound 18]", "inhibition at 10 µM", 3),
]
